subject-of-test: Luciferin 4-monooxygenase (Photinus pyralis)
assay-details: qHTS profiling assay for firefly luciferase inhibitor/activator using purifed enzyme and Km concentrations of substrates (counterscreen for miR-21 project); note: nearly all actives have a fitted effect of over 55% in size
condition-parameters: purified FLuc, luminescence inhibition; series mostly up to 57.5 µM
The whole screen tested about 360,000 compounds, of which about 25,000 (6.9%) were called active. Roughly 9% stayed inconclusive and do not appear here. Calls come from the whole dose curve; as a rule, active = well fitted inhibition curve with a large enough effect; inconclusive = small, poorly fitted or top-dose-only effect; inactive = flat fitted curve, though single readings scatter. Only a selection was taken, and actives are over-represented in it overall.
Your reply should match one of these outcome classes. class 1 for active, class 0 for inactive

Asked: What did this assay record as the result for Cc1ccc(C(=O)/C=C/c2c(C)nn(-c3ccccc3)c2Cl)cc1 ?
Given back: class 1

Asked: // param item: COc1ccc(C)cc1NC(=O)c1cc(-c2ccccc2)nc2c1cnn2C(C)C ; yields the recorded call
Given back: class 0

Asked: For CC(Sc1oc(-c2ccco2)nc1S(=O)(=O)c1ccc(Br)cc1)c1ccccc1 (centres undefined) , which call appears in the assay record?
Given back: class 0

Asked: Hi team, can someone confirm the assay call for Cc1cc(NC(=O)CSc2nc(=O)cc(N)n2-c2ccc(F)cc2)no1 ?
Given back: class 0

Asked: Give the logged outcome of this assay for the following molecule: CCC(=O)NC(Nc1cc(C)ccn1)(C(F)(F)F)C(F)(F)F
Given back: class 0

Asked: Recorded test outcome, item Cc1nn(-c2ccccc2)c(Cl)c1/C=C/C(=O)c1ccc(O)cc1
Given back: class 1

Asked: State the result this test recorded for Cc1cc2cc3c(N)[nH]nc3nc2cc1C .
Given back: class 1

Asked: Could you check what this test reported for CCOc1ccc(CNC(=O)c2ccc(CS(=O)c3ccccc3)o2)cc1 (centres undefined) ?
Given back: class 0

Asked: Fill in: this test's call for CCOc1ccccc1NC(=O)Cn1c(=O)n(Cc2ccccc2)c(=O)c2c(C)c(C(=O)N(C)C)sc21 is ___
Given back: class 0

Asked: Kindly provide the recorded test outcome for the following molecule: Cc1ccccc1OCc1ccc(-c2nc(C#N)c(N3CCCCC3)o2)o1
Given back: class 0

Asked: Please state the recorded outcome for this molecule: O=C(Nn1c(SCc2ccc([N+](=O)[O-])cc2)nc2ccccc2c1=O)c1ccc(F)cc1
Given back: class 1

Asked: Call for entry Cc1nc2ccccc2c(=O)n1NC(=O)c1ccc(Cl)c([N+](=O)[O-])c1 :
Given back: class 0

Asked: What call does the record list for Cc1ccc(C(=O)OCc2nc(N)nc(Nc3ccccc3C)n2)cc1 ?
Given back: class 0

Asked: Please indicate how the test categorized O=C(NCc1ccc(F)cc1)c1ccc(Cn2c(SCc3ccc(F)cc3)nc3cccnc32)cc1 .
Given back: class 1

Asked: # lookup: test call for O=C(N/N=C/c1ccc([N+](=O)[O-])o1)c1cn(-c2ccccc2)nc1-c1ccc(F)cc1
Given back: class 0

Asked: Write down the call the test reported for this molecule. Item: COc1cccc(C(=O)N(Cc2cccc(Cl)c2)Cc2ccco2)c1
Given back: class 0

Asked: Assay outcome for COc1ccc(CCNC(=O)Cn2c(=O)n(-c3ccccc3)c(=O)c3c(C)c(C)sc32)cc1OC : what was it?
Given back: class 0

Asked: Please indicate how the test categorized OCc1cnc(SCc2ccc(F)cc2)n1Cc1ccc(F)cc1 .
Given back: class 0

Asked: What outcome does the record of this test show for CCOc1cccc2sc(N3CCN(C(=O)C4CC4)CC3)nc12 ?
Given back: class 0

Asked: Recorded test call requested for O=C1CSC(=S)N1c1ccc(O)cc1
Given back: class 0

Asked: Record lookup: outcome of this test for O=Cc1ccc(Oc2cccc(C(F)(F)F)c2)nc1 ?
Given back: class 0

Asked: Hi team, can someone confirm the assay call for CCOC(=O)CNC(=O)CSc1nc2cccnc2n1CC ?
Given back: class 0

Asked: I'd appreciate the recorded outcome for Cc1nn(C(=O)c2c(F)cccc2F)c(C)c1S(=O)(=O)N1CCOCC1 from this test.
Given back: class 0

Asked: Status in this test for CCCN(CCC)S(=O)(=O)c1ccc(C(=O)Nc2sc3c(c2C(=O)OC)CCN(CC)C3)cc1 ?
Given back: class 0

Asked: What did the test return for Cc1nn(-c2ccccc2)c(C)c1/C=C/C(=O)OC(C)C(N)=O (centres undefined) ?
Given back: class 0

Asked: Entry Cc1nn(-c2ccccc2)c(C)c1NC(=O)CCl : call = ?
Given back: class 0

Asked: Test call for this molecule, please: O=[N+]([O-])c1cccc(C2=NCCS2)c1
Given back: class 0

Asked: Look up the recorded call for COc1ccccc1OCC(=O)Nc1nnc2n1CCS2 in this test.
Given back: class 0

Asked: Outcome? CCOc1cccc(/C=N/N2C(=O)CSC2=S)c1O
Given back: class 1

Asked: GET /call?item= CC(=O)c1cccc(NC(=O)C2CCN(C(=O)c3ccccc3Cl)CC2)c1 returns the recorded outcome of this test.
Given back: class 0

Asked: Short answer needed: outcome of this test for Cc1ccccc1Nc1nc(N)nc(CSc2ccccc2)n1 ?
Given back: class 1

Asked: Call for entry Cc1ccc(-c2nn(-c3ccccc3)cc2/C=N/NC(=O)c2ccc3c(c2)OCO3)cc1 :
Given back: class 1

Asked: What was the test verdict on FC(F)(F)c1ccnc(Oc2ccc(C3=NCCS3)cc2)c1 ?
Given back: class 1

Asked: What was the test verdict on Cc1ccc(Cn2c(CNC(=O)Cc3cccc(C)c3)nc3cccnc32)cc1 ?
Given back: class 0

Asked: Recorded test outcome, item COc1ccc(COCC(O)CN2CCC(C(N)=O)CC2)cc1 (centres undefined)
Given back: class 0

Asked: GET /call?item= Cc1ccc(S(=O)(=O)NCCNC(C)c2ccc(Br)cc2)cc1 (centres undefined) returns the recorded outcome of this test.
Given back: class 0

Asked: Recorded test outcome, item Cc1cccc(CSc2nc3ccncc3n2CC(=O)N(C)C2CCCCC2)c1
Given back: class 0

Asked: Dear colleague, could you share the recorded outcome for CCCNC(=O)c1ccc(Cn2c(SCC(N)=O)nc3ccccc3c2=O)cc1 when you have a moment?
Given back: class 0

Asked: Tell me the recorded outcome of this test for CNS(=O)(=O)c1ccc(C(=O)NCC(=O)NCCc2ccc3c(c2)OCCO3)cc1 .
Given back: class 0

Asked: Called result for Cc1cc(-c2ccc(C)c(S(=O)(=O)N3c4ccccc4CC3C)c2)on1 (centres undefined)
Given back: class 0

Asked: Called result for CN(Cc1nc(-c2cnccn2)no1)Cc1n[nH]c2c1CCCCC2
Given back: class 0

Asked: What was the test verdict on COc1cc(CN2CCC(C(N)=O)CC2)ccc1OCc1ccccc1 ?
Given back: class 1

Asked: Hey, what did the test say about CC(=O)Nc1ccc(S(=O)(=O)NC2(C(F)(F)F)C(=O)NC(C)=C2C#N)cc1 (centres undefined) ?
Given back: class 0

Asked: What did the test return for Cc1ccc(CSc2nc3cccnc3n2Cc2ccc(C(=O)NC3CC3)cc2)cc1 ?
Given back: class 1
